Biological target: human PAD4 (Homo sapiens, UniProt Q9UM07)
Construct: human PAD4 (NM_012387), A2-P663, was PCR amplified; His-SUMO (N, cleaved yes)
Sequence (Q9UM07 2-663): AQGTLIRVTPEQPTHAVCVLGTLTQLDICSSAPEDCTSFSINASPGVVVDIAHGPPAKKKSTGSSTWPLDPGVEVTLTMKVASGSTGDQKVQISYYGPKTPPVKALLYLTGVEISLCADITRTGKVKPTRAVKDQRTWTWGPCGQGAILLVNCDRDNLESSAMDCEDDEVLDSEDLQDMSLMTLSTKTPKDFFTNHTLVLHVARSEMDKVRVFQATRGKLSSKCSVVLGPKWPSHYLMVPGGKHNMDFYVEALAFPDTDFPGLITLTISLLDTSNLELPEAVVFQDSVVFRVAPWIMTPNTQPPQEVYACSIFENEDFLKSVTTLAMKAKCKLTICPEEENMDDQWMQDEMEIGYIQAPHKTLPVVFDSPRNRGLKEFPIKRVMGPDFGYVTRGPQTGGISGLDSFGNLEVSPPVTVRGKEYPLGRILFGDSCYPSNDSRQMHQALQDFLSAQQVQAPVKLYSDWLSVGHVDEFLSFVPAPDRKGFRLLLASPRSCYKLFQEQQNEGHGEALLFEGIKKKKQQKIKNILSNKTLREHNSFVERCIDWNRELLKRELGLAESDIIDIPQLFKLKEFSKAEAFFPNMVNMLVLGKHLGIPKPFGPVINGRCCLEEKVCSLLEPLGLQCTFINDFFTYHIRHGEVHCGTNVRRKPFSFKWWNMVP
Assay: In vitro PAD4 BAEE biochemical assay
Conditions: BAEE substrate 3 mM, 5 nM PAD4, 2 mM calcium chloride; geometric mean of multiple experiments
quantityName: IC50 (nM)

{"molecule": "COc1cc(C(=O)N2CCC[C@@H](N)C2)cc2nc(-c3cc4ccc5nc4n3CCCCCCCC(=O)N[C@@H]5C(F)(F)F)n(C)c12 (single isomer, unassigned)", "quantityName": "IC50", "quantityUnit": "nM", "resultNumber": 113}
{"molecule": "COC1(Cn2c(-c3cc4ccc5nc4n3CCCCC[C@@H]3C[C@H]3C(=O)N[C@@H]5C)nc3cc(C(=O)N[C@H]4CNCC[C@@H]4F)c(F)cc32)CC1", "quantityName": "IC50", "quantityUnit": "nM", "resultNumber": 83}
{"molecule": "COc1cc(C(=O)N2CCC[C@@H](N)C2)cc2nc(-c3cc4ccc5nc4n3C[C@@H]3C[C@H]3CCCC(C)(C)C(=O)N[C@@H]5C)n(C)c12", "quantityName": "IC50", "quantityUnit": "nM", "resultNumber": 104}
{"molecule": "C[C@H]1NC(=O)[C@@H]2C[C@@H]2C/C=C\\CCn2c(-c3nc4cc(C(=O)N[C@H]5CNCC[C@@H]5F)c(F)cc4n3C)cc3ccc1nc32", "quantityName": "IC50", "quantityUnit": "nM", "resultNumber": 76}
{"molecule": "COc1cc(C(=O)N2[C@H]3CC[C@@H]2[C@H](N)C3)cc2nc(-c3cc4ccc5nc4n3CCCCCCCC(=O)N[C@H]5C(F)(F)F)n(C)c12", "quantityName": "IC50", "quantityUnit": "nM", "resultNumber": 2470}
{"molecule": "COc1cc(C(=O)N[C@H]2CNCC[C@@H]2F)cc2nc(-c3cc4ccc5nc4n3CCCCC[C@@H]3C[C@H]3C(=O)N[C@@H]5C)n(C)c12", "quantityName": "IC50", "quantityUnit": "nM", "resultNumber": 42}
